Assay: NFAT Signaling Pathway (AID 444);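 further: carbachol stimulus at about its EC50 of 1 µM final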
Conditions: Jurkat NFAT-bla M1, carbachol, beta-lactamase ratio, 5 h; at 7.69 µM (top of the series) unless noted
Results filed as inconclusive are left out. Active and inactive are the calls of the source. The call rests on the fitted dose curve; in most records, active means well fitted curve in either direction with a large enough effect (not every such curve was filed as active); inconclusive means small, poorly fitted or top-dose-only effect, or another doubt; inactive means flat fitted curve, though single readings scatter.
Outcome codes: Y (active), N (inactive)

CPD SMILES	CLASSIFICATION
COC(=O)N1CCC2(CCCN(C(=O)Nc3ccc(OC)cc3)C2)CC1	N
COc1ccc(C(=O)N2CCC[C@@]3(CCN(c4ncccn4)C3)C2)cc1	N
CC(=O)N1CCC2(CC1)CN(Cc1ccc(C#N)cc1)C2	N
COCC(=O)N1CCC[C@@]2(CCN(Cc3nccs3)C2)C1	N
O=C(Nc1ccccc1)N1CCCC2(CCN(C(=O)c3cnccn3)CC2)C1	N
CC(=O)N1CCC2(CC1)CCN(c1ncccn1)CC2	N
CNc1nc(-c2ccccc2C(F)(F)F)nc2ccccc12	N
COc1ccc(NC(=O)N2CCC3(CC2)CCN(C(=O)c2ccncc2)CC3)cc1	N
COc1ccccc1-c1nccc(NCc2ccccc2)n1	N
COc1ccccc1-c1ccc2ncnc(NCc3cnc(C)cn3)c2c1	N
CN(C)c1ncc2nc(CCc3ccccc3)c(=O)n(Cc3ccc(F)cc3)c2n1	N
Cc1noc(C)c1-c1nccc(N2CCN(C)CC2)n1	N
c1csc(CNc2ncncc2-c2ccoc2)c1	N
CN(C)c1ncc2nc(-c3ccc(F)cc3)c(=O)n(CCc3ccccc3)c2n1	Y
O=C(c1ccncc1)N1CCC2(CC1)CCN(c1ccc(-c3ccccc3)cc1)CC2	N
N#Cc1cccc(NC(=O)N2CC[C@@]3(CCCN(C(=O)c4cnccn4)C3)C2)c1	N
COc1cccc(Cn2c(=O)c(CCc3ccccc3)nc3cnc(OC)nc32)c1	N
CC(=O)N1CCC2(CC1)CCN(C(=O)Nc1cccc(C#N)c1)CC2	N
COc1ccccc1CN1CC[C@@]2(CCCN(C(=O)c3cnccn3)C2)C1	N
N#CCCn1c(=O)c(CCc2ccccc2)nc2cnc(N3CCOCC3)nc21	N
O=C(c1cnccn1)N1CCC2(CC1)CN(Cc1nccs1)C2	N
COc1ccccc1CNc1ccnc(-c2ccc(C(=O)N(C)C)cc2)n1	N
O=C(c1ccncc1)N1CCC[C@@]2(CCN(c3ccccc3)C2)C1	N
Cc1nc2cnc(N3CCN(C)CC3)nc2n(C2CC2)c1=O	N
Cc1noc(C)c1C(=O)N1CCC2(CCCN(c3ccccn3)C2)CC1	N
CCNc1ncc2nc(-c3cc(F)cc(F)c3)c(=O)n(Cc3ccc(F)cc3)c2n1	N
COc1ccc(C(=O)N2CCC3(CCCN(C)C3)CC2)cc1	N
COc1ncc2nc(-c3ccccc3)c(=O)n(C[C@H]3CCCO3)c2n1	N
COc1ccc(Oc2ncc3nc(C)c(=O)n(CCC#N)c3n2)cc1	N
O=C(Nc1cccc(F)c1)N1CCCC2(CCN(C(=O)c3cc(C(F)(F)F)cc(C(F)(F)F)c3)CC2)C1	N
CN1CCN(c2cc(-c3ccccc3Cl)ncn2)CC1	N
CN(C)c1ccc(-c2cncnc2-n2ccnc2)cc1	N
COc1cccc(Cn2c(=O)c(-c3cc(F)cc(F)c3)nc3cnc(OC)nc32)c1	N
O=c1c(-c2ccccc2)nc2cncnc2n1Cc1ccccc1Cl	N
COc1cccc(Cn2c(=O)c(-c3cccc(F)c3)nc3cncnc32)c1	N
CN(Cc1ccco1)c1cc(-c2ccccc2C(F)(F)F)ncn1	N
CS(=O)(=O)N1CCC2(CCN(Cc3nccs3)CC2)CC1	N
CS(=O)(=O)N1CCC2(CCCN(C(=O)Nc3cccc(F)c3)C2)CC1	N
CN(C)c1ncc2nc(-c3cc(F)cc(F)c3)c(=O)n(Cc3cccs3)c2n1	Y
c1nc(NCCN2CCOCC2)c2cc(-c3ccc4c(c3)OCO4)ccc2n1	N
COc1cccc(Nc2ncc3nc(-c4ccc(F)cc4)c(=O)n(C[C@H]4CCCO4)c3n2)c1	N
COc1ccc(C(=O)N2CCC[C@@]3(CCN(Cc4nccs4)C3)C2)cc1	N
Clc1ccccc1-c1nccc(NCc2ccccc2)n1	N
COc1ncc2nc(-c3cn(C)c4ccccc34)c(=O)n(C[C@H]3CCCO3)c2n1	N
